tested on: NCI-H460 lung; assay: NCI tumour cell line growth inhibition, 48 h
Field: TGI. Provide a value for each of the compounds that follow.

Task: Specify measured TGI for `COc1ccc(-c2nc3ccccc3c(=O)[nH]2)c(OC)c1` .
Output: > 100 µM

Task: Provide measured TGI value, entry: `COc1cc(/C=C/c2ccc(/C=C/c3cc(OC)c(OC)c(OC)c3)cc2)cc(OC)c1OC`
Output: > 82 µM

Task: State its TGI: COc1ccc(N2C(=O)C3c4[nH]c5ccc(C)cc5c4C4CCC(c5ccccc5)CC4C3C2=O)cc1 (stereo not given)
Output: > 100 µM

Task: Report TGI, nothing else, for this compound: `CC(=O)N(C)c1ccc2ncccc2c1[N+](=O)[O-]`
Output: > 100 µM

Task: Please give the documented TGI of `COc1ccc(C(=O)n2nc(/C=C/c3ccc(O)c(OC)c3)cc2/C=C/c2ccc(O)c(OC)c2)cc1`
Output: 13.3 µM
